# protocolDetails: yeast display, Sf9 membrane polyspecificity reagent, FACS + sequencing; frameworks hold sequencing errors
observationType: polyreactivity (PSR sort gate)

constructSequence | measValue
QVQLVESGGGLVQAGGRLRLSCAATGFTFTYYPMGWYRQATGKETEFVAAITWNSGTTYYADSVKGRFTISRDNAKNTVYLQMISLKPEDTAVYYCNALWHRQRWSRGDYWRQGTQVTVSS | high polyreactivity
QVQLVESGGGLVQAGGSLRLSCAASGRTFGEYAMGWYRQAPGKERELVAAISSAGSTYYADSVKGRFTISRDNAKNTVYLQMNSLKPEDTAVYYCAASRKYGYGYWGQGTQVTVSS | high polyreactivity
QVKLVESVGGLVQAGGSLRFSCAASANTFYYYAMGWYREAPGNDMELVASITWRVGDTYYADSVKGRFTIARDNAKNTVYLQMNSLKPEDTAVYYCAKPRLGRYDSLSYLGDYPGYDYWGQGTQVTVSS | low polyreactivity
QVQLVESGGGLVQAGGSLRLSCAASGFIFGYYAMGWYRQAPGKERELVAAINGSGGSTYYADSVKGRFTISRDNAKNTVYLQMNSLKPEDTAVYYCNADVVPQYYSWGQGTQVTVSS | low polyreactivity
QVQRVESGGGLVQAGGILRLSCAASGSTFREYTMGWYRQAPGKEKELVAAITNSGGSTYYADSVKGRFTISRDNEKNTVYLQMNSLKPEDTAVYYCAADVGIVDYDYWGQGTQVTVSS | low polyreactivity
QVQLVESGGGLDQAGGSLRLSSAASGSIFRGNAMGWYRQAPGKERELVAGINRAGSTKYADSVKGRFTISRDNAKNTVYLQMNSLIPEDTAVYYCAAVRYERGLWSDYWGQGTQVTVSS | high polyreactivity
QVQLVESGGGLVQAGGSLRLSCAASGFIFADYDMGWYRQAPGKERELVAAISWSGGTTYYADSVKGRFTISRDNAKNTVYLQMNSLKPEDTAVYYCAAYWWAVYSVVTGARYDYWGQGTQVTVSS | high polyreactivity
QVQLVESGGALVQAGGSLRLSCAASGSTFYSYAMGWYRQAPGKERELVAVISTGDTTDYADSVKGRFTISRDNAKNTVNLQMNSLKPEDTAVYYCNAPSYWYYPVLGSFLTFDYWGQGTQVTVSS | low polyreactivity
QVQLVESGGGLVQAGGSLRLSCAASGLIFHGYAMGWYRQAPGKERELVAVITKNGGRTYYADSVKGRFTISRDTAKNTVYLQMNSLKPEDTAVYYCATGKNYWRGYEYWGQGTQVTVSS | high polyreactivity
QVQLVESGGGLVQAGGSLRLSCAASGRIFDANAMGWYRQAPGKERELVAANSRRGGRTYYADSVKGRFTISRDNAKNTVYLQMNSLKPEDTAVYYCARVPTRAEDVAGWTGMDYWGQGTQVTVSS | high polyreactivity
QVQLVESGGGLVQAGGSLRISCAASGRIFRVYAMGWYRQAPGKERELVAAISYSGGRTFYADSVKGRFTNSRDNAKNTVYLQMNSLKPEDTAVYYCAATSYSTQALPPFDYWGQGTQVTVSS | low polyreactivity
QVQLVDSGGGLVQAGGSLRLSCAASGSIFPGNPMGWYRQAPGKERELVAVIDFSGASTYYADSVKGRFTISRDNAKNTVYFQMNSLKPEDTADYWGQCTQVTVSS | low polyreactivity
QVQLVESGGGLVQAGGSLRLSCAASGSIFGSYAMGWSRQAPGKERELVAAISKSGGNTYYADSVKGRFTISRDNAKNTVYLQMNSLKPEDTAVYYCAAYGFYRWRGYDYWGQGTQVTVSS | high polyreactivity
QVQLEESGGRLVQAGGSLRLSCAASGSTFITNAMGWYRQAPGKERELVAAITYSTGGTYYADSVKGRFTISRDNAKNTVYLQMNSLKPEDTAVYYCAALLYFFLYDYWGHGTQVTVSS | low polyreactivity
QVQLVESGGGLVQAGGSLRLSCAASGSIFFFNAMGWYRQAPGKVREFVAAITSSSGRTYYADSVKGRFTISRDNAKNTVYLQMNSLKPEDTAVYYCAAQVPEDTETVDYWGQGTQVTVSS | low polyreactivity

====

# protocolDetails: yeast display, Sf9 membrane polyspecificity reagent, FACS + sequencing; frameworks hold sequencing errors

constructSequence | polyreactivity (PSR sort gate)
QVQLVESGGGLVQAGGSLRLSCAASGRTFVYYAMGWYRQAPGKERELVAAISTGGSTNYADSVKGRFTISRDNAKNTVYLQMNSLKPEDTAVYYCAAQYYISISKYDYWGQGTQVTVSS | low polyreactivity
QVQLVESGGGLVQAGGSLRLSCAASGSNFVYNAMGWYRQAPGKERELVAVINKSGDTTYYADSVKGRFTISRDNAKNTVYLQMNSLKPEDTAVYYCNASGEVLAAVVTYDYWGQGTQVTVSS | low polyreactivity
QVQLVESGGGLVQAGGSLRLSCAASGIIFWDYAMGWSRQAPGKEREIVAAINTSGGTTTYADSVKGRFTISRDNAKNTVYLKMNSLKPEDTAVYYCAADTWGYYSYAYYYWGQGTQVTVSS | low polyreactivity
QVQLVESGGGLVQAGGSLRLSCAASGFTIVYYAMGWYRQAPGKERELVAVISSRGGSTYYADSVKGRFTISRDNAKNTVYLQMNSLKPEDTAVYYCAARGRGQPFVRYDYWGQGTQVTVSS | high polyreactivity
QVQLVESGGGLVQAGGSLRLSCAASGSTFQANAMGWYRQAPGKERELVAAISSRGGITYYADSVKGRFTISRDNAKNTVYLQMNSLKPEYTAVYYSNALPRCTYRQGLGVRLYYWGQGTQVTVSS | high polyreactivity
QVQLVESGGGLVQAGGSLRLSCAASGRIFPAYAMGWYRKAPGKETELVAAISWRSGSTYYAHSVKGRFTISRDNAKNTVYLQMNSLKPEDTAVYYCAAEYDWPGYDYWGQGTQVTVSS | high polyreactivity
QVQLVESGGGLVQAGGSLRLSCAASGITFGHYAMGWYRQAPGKERQLVAGINWSGDGRYYADSVKGRFTISRDNAKNTVYLQMNSLKPEDTAVYYCDAETFYDYGGYDYWGQGTQVTVSS | low polyreactivity
QVQLVESGGGLVQAGGSLRLSCAASGRIFRYYAMGWYRQAPGKESELVAAINSGGSTKYADSVKGRFTISRDNAKNTVYLQMNSLKPEDTAVYYCNKDHAFSRYWYGGFDYWGQGTQVTVSS | high polyreactivity
QVQLVESGGGLVQAGGSLRLSCAASGRIFGDNAMGWYRQAPGKEREFVATINGSGGSTYYADSVKGRFTISRDNAKNTVYLQMNSLKPEDTAVYYCFVQQNYGYDYWGQGTQVTVSS | low polyreactivity
QVQLVESGGGLVQAGGSLRLSCAASGSIFNIYAMGWYRQAPGKERELVAAIRWTGGSTYYADSVKGRFTISRDNAKNTVYLQMHSLKPEDTALYYSAARTSRGGHYYWGHGTQVTVSS | high polyreactivity
QVQLVESGGGLVQAGGSLRLSCAASGITFGPYAMGWYRQAPGKERELVAAISAGGGSTYYADSVKGRFTISRDNAKNTVYLQMNSLKPEDTAVYYCAAYLLHHYGGPEYYYWGQGTQVTVSS | high polyreactivity
QVQLVESGGGLVQAGGSLRLSCAASGFTFIRYAMGWYRQAPGKARELVAAIRGTGTSTYYADSVKGRFTISRDNAKNTVYLQMNSLKPEDTAVYYCNKVAGRSPYTRYDYWGQGTQVTVSS | low polyreactivity
QVQLVESGGGLVQAGGSLRLSCAASGRTFRQYAMGWYRQAPGKERELVATISGGGGNTYYADSVKGRFTISRDNAKNTVYLQMNSLKPEDTAVYYCAARRRDRPVRGYDYWGQGTQVTVSS | high polyreactivity
QVQLVESGGGLVQAGGSLRLSCAASGSIFLPYAMGWSRQAPGTEREFVAAIRWSTGRTFYADSVKGRFTISRDNAKNTVYLQMNSLKPEDTAVYYCAAKYYDSWYTYRYDYWGQGTQVTVSS | high polyreactivity
QVQLVESAGGLVQAGGSLRLSCAASGLTFVRYGMGWYRQAPGKERELVAAITSDDSTYYADSVKGSFTISRDNAQNTVYLQMNSLNPEDTAVYYCAARYTLYDTGESSRTYTGFIYWGLGTQVTVSS | low polyreactivity

====

# protocolDetails: yeast display, Sf9 membrane polyspecificity reagent, FACS + sequencing; frameworks hold sequencing errors

constructSequence | polyreactivity (PSR sort gate)
QVQLVESGGGLVQAGGSLRLSCAASGRTFWVYAMGWYRQAPGKERELVAGISWDDGSTDYADSVKGRFTISRDNAKNTVYLQMNSLKPEDTAVYYCNAGEYYKGYYYWGQGTQVTVSS | low polyreactivity
QVQLVESGGGLVQAGGSLRLSCAASGRTFGHNAMGWYRQAPGKEREFVAAITYSGVRTFYADSVKGRFTISRDNAKNTVYLQMNSLKPEDTAVFYCAAYYPSQDYSGFWSDTYEYWGQGTQVTVSS | low polyreactivity
